- Experimental target: T1, Human CD137 ECD (human)
- T1 construct: entry includes C-terminal His-tag and biotin acceptor peptide; also called human CD137 extracellular domain; 4-1BB
- T1 sequence (chain, as listed by the source limits assumed): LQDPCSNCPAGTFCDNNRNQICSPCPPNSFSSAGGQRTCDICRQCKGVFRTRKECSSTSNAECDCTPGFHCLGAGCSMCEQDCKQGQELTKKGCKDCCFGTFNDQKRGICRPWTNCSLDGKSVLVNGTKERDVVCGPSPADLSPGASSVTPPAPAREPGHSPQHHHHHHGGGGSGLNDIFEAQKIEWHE
- Assay remarks: Biacore SPR, vs parent H183/L072
For each entry below, report its fold change of affinity value.
Lab book: enter the figure in fold, no units written.

Record summary for H183/L072 VL F96K (antibody, name in Kabat numbering, V domains shown, Dual-Ig) VH: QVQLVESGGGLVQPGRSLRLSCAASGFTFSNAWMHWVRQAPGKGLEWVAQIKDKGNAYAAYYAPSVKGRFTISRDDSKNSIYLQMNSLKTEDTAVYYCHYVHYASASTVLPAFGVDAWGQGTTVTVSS VL: DIVMTQSPLSLPVTPGEPASISCQASQELVHMNRNTYLHWYQQKPGQAPRLLIYKVSNRFPGVPDRFSGSGSGTDFTLKISRVEAEDVGVYYCAQGTSVPKTFGQGTKLEIK : reported fold change of affinity = 0

The binder identified as H183/L072 VL Q90L (antibody, name in Kabat numbering, V domains shown, Dual-Ig) VH: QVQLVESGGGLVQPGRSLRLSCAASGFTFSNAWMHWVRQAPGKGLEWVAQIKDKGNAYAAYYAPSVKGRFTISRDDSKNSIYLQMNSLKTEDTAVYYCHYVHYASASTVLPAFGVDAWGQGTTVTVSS VL: DIVMTQSPLSLPVTPGEPASISCQASQELVHMNRNTYLHWYQQKPGQAPRLLIYKVSNRFPGVPDRFSGSGSGTDFTLKISRVEAEDVGVYYCALGTSVPFTFGQGTKLEIK registered its fold change of affinity at 0

According to the records, this binder H183/L072 VL K50E (antibody, name in Kabat numbering, V domains shown, Dual-Ig) VH: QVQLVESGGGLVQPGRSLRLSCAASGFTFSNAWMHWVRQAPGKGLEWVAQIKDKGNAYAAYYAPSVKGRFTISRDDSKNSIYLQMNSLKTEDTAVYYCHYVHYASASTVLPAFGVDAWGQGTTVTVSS VL: DIVMTQSPLSLPVTPGEPASISCQASQELVHMNRNTYLHWYQQKPGQAPRLLIYEVSNRFPGVPDRFSGSGSGTDFTLKISRVEAEDVGVYYCAQGTSVPFTFGQGTKLEIK displays fold change of affinity of 0

Record H183/L072 VL L27bH (antibody, name in Kabat numbering, V domains shown, Dual-Ig) VH: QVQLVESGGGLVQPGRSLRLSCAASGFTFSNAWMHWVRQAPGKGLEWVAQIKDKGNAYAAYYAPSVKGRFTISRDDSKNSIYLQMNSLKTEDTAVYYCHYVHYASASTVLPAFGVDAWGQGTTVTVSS VL: DIVMTQSPLSLPVTPGEPASISCQASQEHVHMNRNTYLHWYQQKPGQAPRLLIYKVSNRFPGVPDRFSGSGSGTDFTLKISRVEAEDVGVYYCAQGTSVPFTFGQGTKLEIK . Reported fold change of affinity: 0.3

The binder H183/L072 VL A25V (antibody, name in Kabat numbering, V domains shown, Dual-Ig) VH: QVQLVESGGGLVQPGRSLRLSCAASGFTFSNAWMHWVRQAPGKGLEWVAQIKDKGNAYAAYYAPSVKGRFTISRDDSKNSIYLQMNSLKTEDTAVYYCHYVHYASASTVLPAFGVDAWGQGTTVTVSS VL: DIVMTQSPLSLPVTPGEPASISCQVSQELVHMNRNTYLHWYQQKPGQAPRLLIYKVSNRFPGVPDRFSGSGSGTDFTLKISRVEAEDVGVYYCAQGTSVPFTFGQGTKLEIK showed fold change of affinity equal to 0.5

Please fill in: fold change of affinity reported for H183/L072 VL P56H (antibody, name in Kabat numbering, V domains shown, Dual-Ig) VH: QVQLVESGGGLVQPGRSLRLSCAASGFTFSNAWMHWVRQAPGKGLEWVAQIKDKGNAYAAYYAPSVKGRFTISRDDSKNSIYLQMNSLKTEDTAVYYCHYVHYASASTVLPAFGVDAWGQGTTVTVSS VL: DIVMTQSPLSLPVTPGEPASISCQASQELVHMNRNTYLHWYQQKPGQAPRLLIYKVSNRFHGVPDRFSGSGSGTDFTLKISRVEAEDVGVYYCAQGTSVPFTFGQGTKLEIK = 0

Query H183/L072 VL P56E (antibody, name in Kabat numbering, V domains shown, Dual-Ig) VH: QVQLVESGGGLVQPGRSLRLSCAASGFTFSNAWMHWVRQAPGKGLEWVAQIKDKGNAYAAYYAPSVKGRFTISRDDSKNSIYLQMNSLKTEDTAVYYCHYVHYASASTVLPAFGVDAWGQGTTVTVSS VL: DIVMTQSPLSLPVTPGEPASISCQASQELVHMNRNTYLHWYQQKPGQAPRLLIYKVSNRFEGVPDRFSGSGSGTDFTLKISRVEAEDVGVYYCAQGTSVPFTFGQGTKLEIK yields fold change of affinity of 0.1

Briefly, fold change of affinity measured for H183/L072 VL R29E (antibody, name in Kabat numbering, V domains shown, Dual-Ig) VH: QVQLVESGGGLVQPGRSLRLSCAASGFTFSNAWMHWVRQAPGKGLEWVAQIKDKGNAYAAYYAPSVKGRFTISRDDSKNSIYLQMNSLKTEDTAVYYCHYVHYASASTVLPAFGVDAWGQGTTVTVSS VL: DIVMTQSPLSLPVTPGEPASISCQASQELVHMNENTYLHWYQQKPGQAPRLLIYKVSNRFPGVPDRFSGSGSGTDFTLKISRVEAEDVGVYYCAQGTSVPFTFGQGTKLEIK : 0.4

Kindly note the recorded fold change of affinity for H183/L072 VL N28Y (antibody, name in Kabat numbering, V domains shown, Dual-Ig) VH: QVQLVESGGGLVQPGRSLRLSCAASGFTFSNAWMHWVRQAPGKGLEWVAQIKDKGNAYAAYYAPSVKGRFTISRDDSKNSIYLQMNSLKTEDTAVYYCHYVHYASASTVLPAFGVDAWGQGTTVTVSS VL: DIVMTQSPLSLPVTPGEPASISCQASQELVHMYRNTYLHWYQQKPGQAPRLLIYKVSNRFPGVPDRFSGSGSGTDFTLKISRVEAEDVGVYYCAQGTSVPFTFGQGTKLEIK , which is 0.4

The binder identified as H183/L072 VL Y32V (antibody, name in Kabat numbering, V domains shown, Dual-Ig) VH: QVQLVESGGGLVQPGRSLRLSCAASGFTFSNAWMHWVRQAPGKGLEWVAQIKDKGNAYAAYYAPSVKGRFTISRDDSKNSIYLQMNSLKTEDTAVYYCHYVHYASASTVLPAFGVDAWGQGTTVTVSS VL: DIVMTQSPLSLPVTPGEPASISCQASQELVHMNRNTVLHWYQQKPGQAPRLLIYKVSNRFPGVPDRFSGSGSGTDFTLKISRVEAEDVGVYYCAQGTSVPFTFGQGTKLEIK registered its fold change of affinity at 0
